System: RBL-1
PROTOCOL NOTES: Compound was tested for its inhibitory activity against LTB4 (5-LO) formation in RBL-1 cells stimulated with the calcium ionophore A-23187
Format: functional, cell-based
COND: Rattus norvegicus
pIC50: −log10 of the molar value.
METRIC NAME: pIC50

| COMPOUND | METRIC NAME | OBS VALUE |
| --- | --- | --- |
| CC(C)(C)c1cc(/C=C2\SC(=N)NC2=O)cc(C(C)(C)C)c1O | pIC50 | 5.92 |

a: CC(C)(C)c1cc(/C=C2\OC(=O)NC2=O)cc(C(C)(C)C)c1O
b: CC(C)(C)c1cc(/C=C2\SC(N=C(N)N)=NC2=O)cc(C(C)(C)C)c1O
c: Cc1ccc(Cl)c(Nc2ccccc2C(=O)O)c1Cl [MECLOFENAMATE SODIUM]
d: CN1C(=S)NC(=O)/C1=C/c1cc(C(C)(C)C)c(O)c(C(C)(C)C)c1
Challenge: Order the records by pIC50, with each subsequent value no larger than the one before. Give the labels in the order specified.
Response given: d, b, a, c
(d: 6.77, b: 6.04, a: 5.55, c: 4.62)

1: CC(C)(C)c1cc(/C=C2\OC(N=C(N)N)=NC2=O)cc(C(C)(C)C)c1O
2: CC(C)(C)c1cc(/C=C2\SC(=S)NC2=O)cc(C(C)(C)C)c1O
Challenge: Compare reported pIC50 values for 1 and 2 . Which is lower? Indicate which entry you chose by stating its label.
Response given: 1

I: CN1C(=O)NC(=O)/C1=C/c1cc(C(C)(C)C)c(O)c(C(C)(C)C)c1
II: CN1C(NC(=N)N)=NC(=O)/C1=C/c1cc(C(C)(C)C)c(O)c(C(C)(C)C)c1
Challenge: Compare reported pIC50 values for I and II . Which is lower? Indicate which entry you chose by stating its label.
Response given: II
(II: 5.89, I: 6.11)

# credit: ChEMBL document CHEMBL1126539
